Test: growth rescue of sdo1-depleted yeast, primary screen, S. cerevisiae, bone marrow failure model (AID 817)
Conditions: S. cerevisiae sdo1-depleted JHY4D growth rescue, OD600 30 h; at 10 µM; active compounds read high; pdr5 snq2 efflux-pump mutant strain
Screen size: about 140,000 compounds; about 300 (0.21%) were called active. The sample holds actives, similar compounds and a random draw of the others, so the mix is not that of the screen.
Category | rule: reported z-score within range, see LOW (below -0.8), MID (-0.8 to below 0.2), HIGH (0.2 or more)

[
  {
    "COMPOUND": "CC(=O)N1CCN(CC(=O)Nc2ccc(SC(F)F)cc2)CC1",
    "CATEGORY_LABEL": "HIGH"
  },
  {
    "COMPOUND": "CN(C)c1ccc(Nc2c3c4c(cccc4n(C)c2=O)C(=O)c2ccccc2-3)cc1",
    "CATEGORY_LABEL": "HIGH"
  },
  {
    "COMPOUND": "Cc1cccc(N=C2NN=C(c3c[nH]c4ccccc34)CS2)c1",
    "CATEGORY_LABEL": "LOW"
  },
  {
    "COMPOUND": "CC1(C)C=C2[C@H]3CC[C@@H]4[C@@]5(C)CCC(=O)C(C)(C)[C@@H]5CC[C@@]4(C)[C@]3(C)CC[C@@]2(C(=O)O)CC1",
    "CATEGORY_LABEL": "MID"
  },
  {
    "COMPOUND": "Cc1cccc2cc(CN(Cc3cccs3)C(=S)NCc3ccco3)c(=O)[nH]c12",
    "CATEGORY_LABEL": "LOW"
  },
  {
    "COMPOUND": "O=C(CSc1ccc(C(F)(F)F)cc1[N+](=O)[O-])NCCOc1ccccc1",
    "CATEGORY_LABEL": "MID"
  },
  {
    "COMPOUND": "Cn1cccc1/C=C1\\SC(=S)N(NC(=O)c2ccc(Cl)cc2)C1=O",
    "CATEGORY_LABEL": "LOW"
  },
  {
    "COMPOUND": "CCCCC(=O)N/N=C(\\C)CC(=O)Nc1cc(Cl)ccc1OC",
    "CATEGORY_LABEL": "MID"
  },
  {
    "COMPOUND": "C/C(=N\\NC(=O)c1ccc(NS(=O)(=O)c2cccs2)cc1)c1ccc2ccccc2c1",
    "CATEGORY_LABEL": "HIGH"
  },
  {
    "COMPOUND": "COc1ccc(/C(C)=N/NC(=O)CCC(=O)Nc2ccc(Cl)cc2Cl)c(OC)c1",
    "CATEGORY_LABEL": "HIGH"
  },
  {
    "COMPOUND": "Cc1ccc(C)c(OCC(=O)N2CCN(C(=O)c3ccco3)CC2)c1",
    "CATEGORY_LABEL": "HIGH"
  },
  {
    "COMPOUND": "Clc1cccc(CN2COc3c(cc(Cl)c4cccnc34)C2)c1",
    "CATEGORY_LABEL": "LOW"
  },
  {
    "COMPOUND": "CC(C)CC(CO)N1CCN(C(=O)c2ccc(Cl)cc2Cl)CCC1=O (stereo not given)",
    "CATEGORY_LABEL": "HIGH"
  },
  {
    "COMPOUND": "Cc1cc(OCCN2CCCC2)cc(C(C)C)c1",
    "CATEGORY_LABEL": "LOW"
  },
  {
    "COMPOUND": "S=C(NCCc1ccccc1)NCc1ccccc1Cl",
    "CATEGORY_LABEL": "LOW"
  },
  {
    "COMPOUND": "COc1cccc(NC(=O)CN(C)S(=O)(=O)c2ccc(C)cc2)c1",
    "CATEGORY_LABEL": "LOW"
  },
  {
    "COMPOUND": "C#CCOCCOCCOCCNc1nc(N2CCN(C(=O)[C@H](C(C)C)n3cc(CCO)nn3)CC2)nc(N2CCN(C(=O)[C@H]([C@@H](C)CC)n3cc(CCCN=C(N)N)nn3)CC2)n1",
    "CATEGORY_LABEL": "HIGH"
  },
  {
    "COMPOUND": "O=C(/C=C/c1ccc(F)cc1)Nc1cccc(S(=O)(=O)Nc2cccc(C(F)(F)F)c2)c1",
    "CATEGORY_LABEL": "MID"
  },
  {
    "COMPOUND": "O=C(CSc1nc2ccccc2c(=O)n1CCCO)N1CCc2ccccc21",
    "CATEGORY_LABEL": "LOW"
  },
  {
    "COMPOUND": "CCOC(=O)c1c(NC(=S)Nc2ccccc2C)sc2c1CCC2",
    "CATEGORY_LABEL": "MID"
  },
  {
    "COMPOUND": "COc1cc(OC)c(C(=O)OC(C)C(=O)Nc2cc(C(F)(F)F)ccc2Cl)cc1OC (stereo not given)",
    "CATEGORY_LABEL": "MID"
  },
  {
    "COMPOUND": "CN(c1ccccc1)S(=O)(=O)c1ccc(Cl)c(C(=O)NCCc2c[nH]c3ccccc23)c1",
    "CATEGORY_LABEL": "HIGH"
  },
  {
    "COMPOUND": "N/C(=N\\OC(=O)N1c2ccccc2Sc2ccccc21)c1ccc(Br)cc1",
    "CATEGORY_LABEL": "LOW"
  },
  {
    "COMPOUND": "Cc1cc(C)cc(NC(=S)NCc2ccc(F)cc2)c1",
    "CATEGORY_LABEL": "MID"
  },
  {
    "COMPOUND": "CC(=O)COc1ccc2c(-c3ccccc3)cc(=O)oc2c1",
    "CATEGORY_LABEL": "MID"
  },
  {
    "COMPOUND": "O=C(NC(=S)Nc1ccc2oc(=O)ccc2c1)c1ccc(-c2cccc(Cl)c2Cl)o1",
    "CATEGORY_LABEL": "MID"
  },
  {
    "COMPOUND": "COc1ccc(C(=O)CSc2nnc(NC(=O)C3CC(=O)N(c4cccc(OC)c4)C3)s2)cc1 (stereo not given)",
    "CATEGORY_LABEL": "MID"
  },
  {
    "COMPOUND": "COC(=O)c1ccc(NC(=O)CSc2nncc3ccc(OC)c(OC)c23)cc1",
    "CATEGORY_LABEL": "LOW"
  },
  {
    "COMPOUND": "C=CCOc1c(Br)cc(/C=N\\n2nnnc2N)cc1OC",
    "CATEGORY_LABEL": "MID"
  },
  {
    "COMPOUND": "COc1ccc(-c2csc(NC(=O)COC(=O)c3ccc(Br)o3)n2)cc1",
    "CATEGORY_LABEL": "HIGH"
  }
]

Where do the numbers come from? From PubChem BioAssay AID817.
